These measurements were taken from patent US20160340421A1.

- tested.system: T1, Human GDF8 homodimer (mature human Growth and Differentiation Factor-8) (human, UniProt O14793 267-375)
- T1 construct: also called hGDF8; myostatin
- T1 sequence: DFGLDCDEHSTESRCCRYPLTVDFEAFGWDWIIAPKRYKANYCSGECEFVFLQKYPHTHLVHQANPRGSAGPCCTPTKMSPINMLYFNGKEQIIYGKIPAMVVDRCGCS
- test.details: SPR, antibody captured, 25 nM antigen
// T1/2 lookup, one value per entry
Give the value in min but do not write min after it.

binder | scale.unit | T1/2
3E2-1 (antibody, V domains shown) VH: QVQLQQWGAGLLKPSETLSLTCAVYGGSFSGYYWSWIRQPPGKGLEWIGEINHSGNTNYNPSLKSRVTISVDTSKNQFSLKLNSVTAADTAVYYCARREATVTPYFDYWGQGTLVTVSS VL: DIQLTQSPSFLSASVGDRVTITCWASQGISSYLAWYQQKPGKAPKLLIYAASTLQSGVPSRFSGSGSGTEFTLTISSLQPEDFATYYCQQLNSYPLTFGGGTKVEIK | min | 45
3A4-3 (antibody, V domains shown) VH: QVQLVQSGGGLVKPGGSLRLSCAASGFIFNTYTMNWVRQAPGKGLEWVSSITSRGTYIFYSDSLKGRFTISRDNANNSLFLQMNSLRVEDTAVYYCSRDRGYTFGPDYWGQGTLVTVSS VL: DIQMTQSPSSLSASVGDRVTITCRASQDIRNDLGWYQQKPGKAPKGLIYAASSLQSGVPSRFSGSGSGTEFTLTISSLQPEDFATYHCLHYDFHPRTFGQGTKVEIK | min | 137

Kindly review the next binder as well.
According to the records, this binder 22-D3 (antibody, V domains shown) VH: QVQLVQSGGGLVKPGGSLRLSCAASGFTFSSYSMNWVRQAPGKGLEWVSSISSSSSYIYYADSVKGRFTISRDNAKNSLYLQMNSLRAEDTAVYYCARDRGYTFGVDYWGQGTTVTVSS VL: AIQMTQSPSSLSASVGDRVTITCRASQGIRNDLGWYQQKPGKAPKRLIYAASSLQSGVPSRFSGSGSGTEFTLTISSLQPEDFATYYCLQHNSYPYTFGQGTKVEIKR displays T1/2 of 34
